Would you kindly list survival for each of these molecules?
System: Wild type
Test: S. aureus survival, RN4220 and DeltatarO strains – OD600, teichoic acid synthesis inhibitors, primary screen (AID 463173)
Settings: S. aureus RN4220 wild type/DeltatarO growth, OD600, 18 h, hits give low values, screened at 18.75 µg/mL (by protocol)
About 1,700 (3.3%) of roughly 52,000 compounds were called active. Shown is part of a subset that was picked to be rich in actives.

molecule	survival
CCN(CC)S(=O)(=O)c1cc(-c2onc(C)c2C)ccc1OC	87% (inactive)
Cc1ccc(S(=O)(=O)NCC(c2ccco2)N2CCOCC2)cc1 (stereo unspecified)	78% (inactive)
Cc1cccn2c(=O)c3cc(C(=O)NCC(C)C)sc3nc12	80% (inactive)
O=C(Nc1ccccc1)c1cccc(N2CCCC2=O)c1	110% (inactive)
O=C(CS(=O)(=O)c1cccc2nsnc12)Nc1cc(F)ccc1F	97% (inactive)

Give survival for all molecules that follow.
1. COc1ccc(C(=O)Nc2ccccc2-c2nc(-c3ccc(OC)cc3)no2)cc1
2. CCc1c(C)nc2nncn2c1Nc1cccc(C)c1

Solution:
1. 89% (inactive)
2. 91% (inactive)

Give survival for each listed item.
1. CCn1c2ccccc2c2cc(CN3CCN(Cc4ccccc4C)CC3)ccc21
2. Cc1cccc(Nc2nc3nonc3nc2N/N=C\c2cccs2)c1C
3. CCN(CC)C(=O)C1CCN(Cc2ccccc2F)CC1
4. Cc1ccc(OC(C)C(=O)NCC2(N3CCOCC3)CCCCC2)cc1C (stereo unspecified)

Solution:
-1% (active)
96% (inactive)
107% (inactive)
86% (inactive)

---

System: Wild type
Assay: S. aureus survival, RN4220 and DeltatarO strains – OD600, teichoic acid synthesis inhibitors, primary screen (AID 463173)
Conditions: S. aureus RN4220 wild type/DeltatarO growth, OD600, 18 h, hits give low values, screened at 18.75 µg/mL (by protocol)
Among all 52,000 compounds or so, about 1,700 (3.3%) were called active. This excerpt belongs to a sample that is enriched for actives.
Would you mind telling me the reported survival of each entry?
Give bare numbers, in %.

Use the examples below as a reference point.
molecule	target.entity	units.symbol	result.number
Cc1cccc(N2CCN(c3cc(C)nc4c(-c5ccc(Cl)cc5)c(C)nn34)CC2C)c1 (stereo not given)	Wild type	%	74
Cc1ccc(OCC(=O)Nc2ccccc2C(=O)OCc2cc(=O)n3c(C)csc3n2)cc1	Wild type	%	72
COc1cc(OC)c(NC(=O)Cn2cnc3c(nc4n3CCCCC4)c2=O)cc1Cl	Wild type	%	59

// for each molecule below, give its survival
1. COc1ccc(S(=O)(=O)n2nc(C)c(S(=O)(=O)N3CCCCC3)c2C)cc1
2. CCc1ccc2nc(N3CCCC3)c(C#N)cc2c1
3. Cc1ccc(C)c(N2CCN(c3cc(C)nc4c(-c5ccc(Cl)cc5)c(C)nn34)CC2)c1
4. O=C(O)CN1C(=O)/C(=N\N2C(=O)CSC2=S)c2ccccc21
5. COc1ccc(CC(=O)NCCS(=O)(=O)N2CCN(c3ccccc3F)CC2)cc1OC

Solution:
[63, 108, 96, 90, 66]

List survival for every entry below, keeping the order given.
1. CCCCN(CCCNC(=O)c1c(C)oc2nc[nH]c(=O)c12)Cc1ccccc1
2. O=C(CSc1n[nH]c(-c2ccccc2)n1)NCCCc1ccccc1

Solution:
1: 71; 2: 69

---

Test system: Wild type
Assay: S. aureus survival, RN4220 and DeltatarO strains – OD600, teichoic acid synthesis inhibitors, primary screen (AID 463173)
Settings: S. aureus RN4220 wild type/DeltatarO growth, OD600, 18 h, screened at 18.75 µg/mL (by protocol)
About 1,700 (3.3%) of roughly 52,000 compounds were called active. Rule as the data show it: active = survival mostly below about 52% (no sharp cut-off); inactive = mostly above about 56%. What follows is part of a selection rich in actives, with near analogues and random picks from the rest.
Outcomes you can answer with include only these: active, inactive

Completed entries (count: 4):
1. Cc1cc(C(=O)NCc2ccccc2C)c2c(C)nn(-c3cccc(F)c3)c2n1 inactive
2. Cc1cc(C(=O)NCc2ccccc2)c2c(C)nn(-c3cccc(F)c3)c2n1 active
3. Cc1cc(C(=O)Nc2ccc(C(C)C)cc2)c2c(C)nn(-c3ccccc3)c2n1 inactive
4. COc1ccc(NC(=O)c2cc(C)nc3c2c(C)nn3-c2cccc(Cl)c2C)c(OC)c1 inactive

Exercise: Recorded test call requested for `Cc1cc(C(=O)N2CCN(c3ccccc3)CC2)c2c(C)nn(-c3cccc(F)c3)c2n1`
Solution: inactive

---

System: Wild type
Experiment: S. aureus survival, RN4220 and DeltatarO strains – OD600, teichoic acid synthesis inhibitors, primary screen (AID 463173)
Conditions: S. aureus RN4220 wild type/DeltatarO growth, OD600, 18 h, hits give low values, screened at 18.75 µg/mL (by protocol)
Screen size: about 52,000 compounds; about 1,700 (3.3%) were called active. The full list was thinned out, with actives kept by preference.
readout.type: survival (%)
Numbers only, in %.

molecule	target.entity	result.number
Cc1cc2c(cc1S(=O)(=O)N(C)CC(=O)Nc1ccc(C#N)cc1)OCC(=O)N2	Wild type	64
CCOc1ccc(-c2cn3c(n2)sc2cc(C(=O)NCCCN4CCCCC4)ccc23)cc1	Wild type	-1
CCn1c(CN2CCOCC2)nc2cc(NC(=O)c3ccc([N+](=O)[O-])cc3)ccc21	Wild type	90
COc1cc2ccccc2cc1C(=O)Nc1ccc2oc(-c3cccc(Cl)c3Cl)nc2c1	Wild type	71
Cc1c(Cl)cccc1NC(=O)C1CCN(c2ncnc3c2nc2n3CCCCC2)CC1	Wild type	129
CCCNC(=O)C1CCC(Cn2c(=O)c3sccc3n(CC(=O)N(CC)CC)c2=O)CC1 (stereo unspecified)	Wild type	128

Look at each molecule and report its survival.
1. CCCCCCSc1ncc(C#N)c(N)n1
2. COc1cc2ccccc2cc1C(=O)Nc1cccc(-c2nc3cc(C)ccc3o2)c1C
3. Cc1ccc(NC(=O)C2CCN(C(=O)c3cnn(-c4ccccc4)c3-n3cccc3)CC2)cc1C
4. O=C(NCc1ccncc1)C1CCN(C(=O)c2cccc(Cl)c2)CC1
5. CCCCN(CC)c1nc(-c2ccccc2F)nc2ccccc12
6. O=C1CS(=O)(=O)C2(C(=O)N(Cc3ccccc3)c3ccccc32)N1c1ccccc1 (stereo unspecified)
7. COc1cc2ccccc2cc1C(=O)Nc1ccc2oc(-c3cccc(C)c3)nc2c1
8. Cc1cc(N(C)Cc2ccccc2)n2nc(-c3ccc(C(C)(C)C)cc3)nc2n1

Solution:
119
75
84
111
71
132
6
77

---

System: Wild type
Experiment: S. aureus survival, RN4220 and DeltatarO strains – OD600, teichoic acid synthesis inhibitors, primary screen (AID 463173)
Settings: S. aureus RN4220 wild type/DeltatarO growth, OD600, 18 h, hits give low values, screened at 18.75 µg/mL (by protocol)
Out of some 52,000 compounds screened, about 1,700 (3.3%) were called active. The sample holds actives, similar compounds and a random draw of the others, so the mix is not that of the screen.
What survival was measured for each of the following?
Numbers only, in %.

compound	target.entity	survival [%]
Cc1ccccc1NC(=O)C(Cc1ccccc1)N1Cc2ccccc2C1=O (stereo unspecified)	Wild type	76

Need survival for each of these compounds.
1. COc1ccc(OC)c(CNC(=O)c2c(C)oc3ncn(C)c(=O)c23)c1
2. CCOc1ccc(CNS(=O)(=O)c2c(C(=O)N3CCC(C)CC3)c(C)n(C)c2C)cc1OC
3. O=C(CSc1ncc(CO)n1Cc1ccccc1)Nc1ccc(C(F)(F)F)cc1
4. Cc1ccc(CNC(=O)c2ccc3c(c2)CCN3S(=O)(=O)c2ccccc2)cc1
5. CCOCCCN(Cc1ccco1)C(=O)c1cc2c(=O)[nH]c3ccc(C)cc3c2s1
6. C=CCn1c2ccccc2c2ccccc21
7. CC1(C)C(=O)N(CC(=O)Nc2ccc(Cl)cc2)c2ccccc21
8. O=C(NCc1ccc2c(c1)CCN2C(=O)c1ccc(Cl)cc1)c1cccc(F)c1

Solution:
[70, 71, 120, 84, 127, 80, 59, 55]

Give one value of survival per listed compound.
1. CCN1CCN(CCCNC(=O)c2cc3c(s2)-c2c(C)cccc2OC3)CC1
2. Cc1cc(C)n2c(SCC(=O)N(C)C3CCCCC3)nnc2n1
3. Cc1cc(Cl)ccc1NS(=O)(=O)c1c(C(=O)N2CCCCCC2)c(C)n(C)c1C
4. COc1cc(OC)c(NS(=O)(=O)c2c(C(=O)N3CCC(C)CC3)c(C)n(C)c2C)cc1Cl
5. CCc1nn(CC(=O)Nc2ccc(NC(C)=O)cc2)c(=O)c2cc3sccc3n12
6. COc1ccc(C)cc1NS(=O)(=O)c1c(C(=O)N2CCC(C)CC2)c(C)n(C)c1C
7. Cc1c(C(=O)N2CCC(C)CC2)c(S(=O)(=O)NCc2ccc(Cl)cc2)c(C)n1C
8. CCOCCCN(Cc1ccco1)C(=O)c1cc2c(s1)-c1c(C)cccc1OC2

Solution:
87
101
77
-1
86
85
133
12
